The reported numbers originate from BindingDB's records for doi:10.1016/0014-2999(84)90478-3.

System: D(2) dopamine receptor (Homo sapiens) | Read-out: pKi
Sequence (P14416 whole entry): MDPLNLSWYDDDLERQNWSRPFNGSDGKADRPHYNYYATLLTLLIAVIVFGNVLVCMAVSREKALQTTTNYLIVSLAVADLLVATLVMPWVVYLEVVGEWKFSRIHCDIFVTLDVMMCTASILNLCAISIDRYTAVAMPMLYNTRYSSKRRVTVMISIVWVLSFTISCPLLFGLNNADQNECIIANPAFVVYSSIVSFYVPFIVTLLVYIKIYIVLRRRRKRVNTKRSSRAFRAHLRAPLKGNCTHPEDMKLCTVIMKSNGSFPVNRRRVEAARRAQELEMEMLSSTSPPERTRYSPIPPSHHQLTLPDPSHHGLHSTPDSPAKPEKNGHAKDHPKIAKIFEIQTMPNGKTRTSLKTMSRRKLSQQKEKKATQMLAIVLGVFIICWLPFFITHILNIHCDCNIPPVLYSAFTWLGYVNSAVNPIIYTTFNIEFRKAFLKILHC
pKi: −log10 of the molar value.

molecule: CN(C)CCCN1c2ccccc2Sc2ccccc21
pKi: 6.80
//
molecule: CCc1c(C)[nH]c2c1C(=O)C(CN1CCOCC1)CC2 (centres undefined)
pKi: 6.92
//
molecule: CN1CCN(CC/C=C2/c3ccccc3Sc3ccc(S(=O)(=O)N(C)C)cc32)CC1
pKi: 9.35
//
molecule: OCCN1CCN(CCCN2c3ccccc3Sc3ccc(Cl)cc32)CC1
pKi: 8.85
